- procedure-summary: folding stability dG unfold from trypsin proteolysis; higher = more stable
Hi, to clarify the labels: Condition met covers folding stability dG unfold from 2 kcal/mol upward, Condition not met covers anything below 2 kcal/mol.

SAGGSALDPDDLEKVTIEFMFYNPNGNLLYEMTLEIYPDDGVIKMEHKQRRPGEPQKVTMEFPFDPSAGGSA [r15_278_TrROS]; Condition not met
SAGGSAGGLHPDEEFVVLFRIDVRARPVSPNAHPELKKKFPNAVIVEAKIDVLILPKEKVKELFSAGGSAGG [r6_830_TrMRF]; Condition met
SAGGSAGGSAMIVKEFVTYDPSTGTRTRTTVTLELYDSPEGGAVVVLEEEVDPVGPLPPLESAGGSAGGSAG [r3_397_JUSTAS]; Condition not met
SAGGSAGGMKEITITNENGETLRIKVFNKETGEEKEIEFPAGMSLEDILKKLKEEEGLEVEIEPSAGGSAGG [r6_202_TrROS_Hall]; Condition met

Does SAGGFEEKVKAGEEVVDVVAPITLPDGTEAVVTRVEPVDDGLLVTLRPPWTGEEVELPLPASEIPKLPSAGG [r13_340_JUSTAS] have a reported folding stability dG unfold of at least 2 kcal/mol?
Condition not met

Entry SAGGSAKKDGTITIKIPVKAPKDKNGKVFKPSAEAIKAKFGELGFDFEIEEIKESETYLEIKIKVKSAGGSA [r15_225_TrMRF] : is its folding stability dG unfold no less than 2 kcal/mol?
Condition not met

* * *

Parameter folding stability dG unfold: see the listing below.
- procedure-summary: folding stability dG unfold from chymotrypsin proteolysis; higher = more stable

Study these solved cases before continuing.
SAGGSSSSLIGEIKLPSNVTIKIERSSKGVRTAVVTFPETGKVVTLPLDPNVSIEEIIEKVKEIVEKKSAGG [r13_624_JUSTAS]; 1.29 kcal/mol
SAGGYLVRIEMPNGREHEYPVKDIDDAASRFRDHLGFPPNMKLKVEVYDPKDGEKKERTLTIPMPKPKSAGG [r13_145_TrROS]; 0.504 kcal/mol
SAGGSAGGSELPPGPYLVTIPADPEPVVAPATFAPDGTVRVRVPEPGEEITIPRDQAEIFPVESAGGSAGGS [r12_782_JUSTAS]; 0.944 kcal/mol

Entry SAGGSAGGSAGMRIVIEVPEDTTVEELAKKLADLGYEVEIRVERDENGRLLVVIEIRPKDSAGGSAGGSAGG [r11_1050_TrROS_Hall] needs its folding stability dG unfold filled in; supply it.
2.88 kcal/mol

Tell me folding stability dG unfold reported for SAGGSAGGSAGGNIKVDDVHHNPNNYRQVKIDLPGGKPIKIWMSMDDPNNVKEIAKEIFSAGGSAGGSAGGS [r10_472_TrROS]
-0.414 kcal/mol

Input SAGGSAGGSAMKLTKEYVFTKTITLKNGKTKTESEVLTEEVPPIPLEELIKRLGLPPEELISAGGSAGGSAG [r3_338_JUSTAS] , output reported folding stability dG unfold.
-0.126 kcal/mol

Report folding stability dG unfold for PKEIIEFAKKNGFKVKIEPVKVGSEEKAKKLAEEIKKKNNGKVFIIKNPKTGEAVYRIEIYPLKVPKNKKLS [r1_179_TrMRF]
2.1 kcal/mol

Please report the measured folding stability dG unfold for SAGGSAGGSAGGSGPSVVLVSLPDGSYIAFPSGADVNIEIPSSSSGARIVAVIPLSELSSAGGSAGGSAGGS [r4_122_TrMRF]
0.714 kcal/mol

Give the reported value of folding stability dG unfold for this record: SAGGSAGGSAGSIGFDSLEEAEKAIEEARRNNVPLTIELRLPDGSTLRIPVDLEIPEDDPSAGGSAGGSAGG [r17_462_TrMRF]
1.19 kcal/mol

Let me know recorded folding stability dG unfold for SAGGSADIKIIKLPEKNELVILVPGEFDENVPLVLHDEGGPSWEVVDARVERVGDDLIITAKVRKSSAGGSA [r15_838_TrMRF] , thanks.
0.701 kcal/mol

// Input: SAMEIVIEFESPEEAEKAIKEYVEKKGLKAVEIKMEFEPKWVEEKTPTGVKVTKEKYVAKVTVVTSKELSAG [r14_773_JUSTAS] . Output its folding stability dG unfold only.
2.03 kcal/mol

Given SAAPGAEVIEEKEIEVGGYTVTIVYNKDTDTVTIFVRNPDGTITEFTIDADTLEITEVREIKLPPGVELSAG [r14_676_TrROS_Hall] , respond with its folding stability dG unfold.
3.35 kcal/mol

Return the recorded folding stability dG unfold value; entry: SAGGSAGGTFEFFFPDGLYFTVEFRIVEMHPNPGNGQMHMRMEATIKIIPLPPPPPPPKDPGDKSAGGSAGG [r6_939_TrROS]
4.3 kcal/mol

Provide folding stability dG unfold value for the following sequence: SAGGSAGGSAGGSLPLILRLAEENGFSVSAVPIPETGTYKAVVTLPDGKPITIELPLTLSAGGSAGGSAGGS [r4_121_TrMRF]
1.04 kcal/mol

The measured values listed here are drawn from the supplement of paper PMC12764529.
